Origin of the recorded values: PubChem BioAssay AID1963971

Provide the reported viability, T/C of each item.
# Test system: 953936-095-R-J2-PDC spheroids with HUVEC/MSC, viability
# assay_procedure: Anticancer human tumor 953936-095-R-J2-PDC patient-derived cervical squamous cell carcinoma cell line growth inhibition [PI3K]
# applied_conditions: second compound 0.1 µM; first compound 0.1 µM; stronger effect = lower value
Give bare numbers, in %.

CC1(C)CCC(CN2CCN(c3ccc(C(=O)NS(=O)(=O)c4ccc(NCC5CCOCC5)c([N+](=O)[O-])c4)c(Oc4cnc5[nH]ccc5c4)c3)CC2)=C(c2ccc(Cl)cc2)C1 + COc1c(OCCCN2CCOCC2)ccc2c3n(c(=NC(=O)c4cnc(N)nc4)nc12)CCN3 ... 17.8

List the reported viability, T/C of each compound below.
1. CC1(C)CCC(CN2CCN(c3ccc(C(=O)NS(=O)(=O)c4ccc(NCC5CCOCC5)c([N+](=O)[O-])c4)c(Oc4cnc5[nH]ccc5c4)c3)CC2)=C(c2ccc(Cl)cc2)C1 + CC(Nc1ncnc2nc[nH]c12)c1cc2cccc(Cl)c2c(=O)n1-c1ccccc1
2. C[C@@H](NC(=O)c1ncnc(N)c1Cl)c1ncc(C(=O)Nc2cc(C(F)(F)F)c(Cl)cn2)s1 + COc1c(OCCCN2CCOCC2)ccc2c3n(c(=NC(=O)c4cnc(N)nc4)nc12)CCN3
3. C=CC(=O)N1CCN(c2nc(=O)n(-c3c(C)ccnc3C(C)C)c3nc(-c4c(O)cccc4F)c(F)cc23)C(C)C1 (stereo not given) + CC(Nc1ncnc2nc[nH]c12)c1cc2cccc(Cl)c2c(=O)n1-c1ccccc1

Reply text:
1. 104
2. 22
3. 108

Inquiry: Look up viability, T/C for this compound: CC(C)NCC(C(=O)N1CCN(c2ncnc3c2C(C)CC3O)CC1)c1ccc(Cl)cc1 (stereo not given) + COc1c(OCCCN2CCOCC2)ccc2c3n(c(=NC(=O)c4cnc(N)nc4)nc12)CCN3
Reply text: 16.4

* * *

# Test system: 953936-095-R-J2-PDC spheroids with HUVEC/MSC, viability
# assay_procedure: Anticancer human tumor 953936-095-R-J2-PDC cell line growth inhibition [PI3K];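 further: spheroids exposed to compounds for seven days before read-out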
# applied_conditions: second compound 0.01 µM; first compound 0.1 µM; stronger effect = lower value
Provide the reported viability, T/C of each item.
Answers are plain numbers, in %.

Some compounds with known viability, T/C results, for comparison:
CC(Cn1ccc(-c2ccc(C#N)c(Cl)c2)n1)NC(=O)c1cc(C(C)O)[nH]n1 (stereo unspecified) + CC(Nc1ccc2c(c1)OCCn1cc(N3C(=O)OCC3C(F)F)nc1-2)C(N)=O ... 90.9
C[C@@H](NC(=O)c1ncnc(N)c1Cl)c1ncc(C(=O)Nc2cc(C(F)(F)F)c(Cl)cn2)s1 + COc1c(OCCCN2CCOCC2)ccc2c3n(c(=NC(=O)c4cnc(N)nc4)nc12)CCN3 ... 77.9
CCN1CCN(Cc2ccc(Nc3ncc(F)c(-c4cc(F)c5nc(C)n(C(C)C)c5c4)n3)nc2)CC1 + COc1c(OCCCN2CCOCC2)ccc2c3n(c(=NC(=O)c4cnc(N)nc4)nc12)CCN3 ... 60.7
Cn1nccc1Nc1nccc(-c2ccn(C(CO)c3ccc(Cl)c(F)c3)c(=O)c2)n1 (stereo unspecified) + COc1c(OCCCN2CCOCC2)ccc2c3n(c(=NC(=O)c4cnc(N)nc4)nc12)CCN3 ... 64.7
CC1(C)CCC(CN2CCN(c3ccc(C(=O)NS(=O)(=O)c4ccc(NCC5CCOCC5)c([N+](=O)[O-])c4)c(Oc4cnc5[nH]ccc5c4)c3)CC2)=C(c2ccc(Cl)cc2)C1 + CC(Nc1ccc2c(c1)OCCn1cc(N3C(=O)OCC3C(F)F)nc1-2)C(N)=O ... 88.9

List the reported viability, T/C of each compound below.
1. CC(C)n1nc(-c2ccc3oc(N)nc3c2)c2c(N)ncnc21 + COc1c(OCCCN2CCOCC2)ccc2c3n(c(=NC(=O)c4cnc(N)nc4)nc12)CCN3
2. C=CC(=O)N1CCN(c2nc(=O)n(-c3c(C)ccnc3C(C)C)c3nc(-c4c(O)cccc4F)c(F)cc23)C(C)C1 (stereo unspecified) + COc1c(OCCCN2CCOCC2)ccc2c3n(c(=NC(=O)c4cnc(N)nc4)nc12)CCN3
3. CC1(C)CCC(CN2CCN(c3ccc(C(=O)NS(=O)(=O)c4ccc(NCC5CCOCC5)c([N+](=O)[O-])c4)c(Oc4cnc5[nH]ccc5c4)c3)CC2)=C(c2ccc(Cl)cc2)C1 + COc1c(OCCCN2CCOCC2)ccc2c3n(c(=NC(=O)c4cnc(N)nc4)nc12)CCN3
4. CC1(C)CCC(Nc2ncc(C(F)(F)F)c(-c3c[nH]c4c(P(C)(C)=O)c(C#N)ccc34)n2)CN1 (stereo unspecified) + COc1c(OCCCN2CCOCC2)ccc2c3n(c(=NC(=O)c4cnc(N)nc4)nc12)CCN3
5. CC(C)n1nc(-c2ccc3oc(N)nc3c2)c2c(N)ncnc21 + CC(Nc1ccc2c(c1)OCCn1cc(N3C(=O)OCC3C(F)F)nc1-2)C(N)=O
6. Cn1ncnc1[C@H]1c2n[nH]c(=O)c3cc(F)cc(c23)N[C@@H]1c1ccc(F)cc1 + CC(Nc1ccc2c(c1)OCCn1cc(N3C(=O)OCC3C(F)F)nc1-2)C(N)=O

Reply text:
1. 11.2
2. 79
3. 78.1
4. 42.2
5. 15.2
6. 86.2

* * *

# Test system: 953936-095-R-J2-PDC spheroids with HUVEC/MSC, viability
# assay_procedure: Anticancer human tumor 953936-095-R-J2-PDC cell line growth inhibition [PI3K];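 further: spheroids exposed to compounds for seven days before read-out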
# applied_conditions: second compound 0.0316 µM; first compound 0.1 µM; stronger effect = lower value
Provide the reported viability, T/C of each item.
Give bare numbers, in %.

Some compounds with known viability, T/C results, for comparison:
CC1(C)CCC(CN2CCN(c3ccc(C(=O)NS(=O)(=O)c4ccc(NCC5CCOCC5)c([N+](=O)[O-])c4)c(Oc4cnc5[nH]ccc5c4)c3)CC2)=C(c2ccc(Cl)cc2)C1 + CC(Nc1ncnc2nc[nH]c12)c1cc2cccc(Cl)c2c(=O)n1-c1ccccc1 ... 102
CC1(C)CCC(Nc2ncc(C(F)(F)F)c(-c3c[nH]c4c(P(C)(C)=O)c(C#N)ccc34)n2)CN1 (stereo not given) + CC(Nc1ncnc2nc[nH]c12)c1cc2cccc(Cl)c2c(=O)n1-c1ccccc1 ... 55.8
CNC(=O)c1ccc(N2C(=S)N(c3ccc(C#N)c(C(F)(F)F)c3)C(=O)C2(C)C)cc1F + CC(Nc1ncnc2nc[nH]c12)c1cc2cccc(Cl)c2c(=O)n1-c1ccccc1 ... 108
CC(C)n1nc(-c2ccc3oc(N)nc3c2)c2c(N)ncnc21 + CC(Nc1ncnc2nc[nH]c12)c1cc2cccc(Cl)c2c(=O)n1-c1ccccc1 ... 18.2

Next compound, please.
Inquiry: Look up viability, T/C for this compound: C#Cc1c(F)ccc2cc(O)cc(-c3ncc4c(N5CC6CCC(C5)N6)nc(OCC56CCCN5CC(F)C6)nc4c3F)c12 (stereo not given) + CC(Nc1ccc2c(c1)OCCn1cc(N3C(=O)OCC3C(F)F)nc1-2)C(N)=O
Reply text: 81.6

* * *

# System: 953936-095-R-J2-PDC spheroids with HUVEC/MSC, viability
# assay_procedure: Anticancer human tumor 953936-095-R-J2-PDC cell line growth inhibition [PI3K];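 further: spheroids exposed to compounds for seven days before read-out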
# applied_conditions: curve of first compound; second compound 0.1 µM
parameter_measured: IC50

Cn1cnc2c(F)c(Nc3ccc(Br)cc3Cl)c(C(=O)NOCCO)cc21 + CC(Nc1ccc2c(c1)OCCn1cc(N3C(=O)OCC3C(F)F)nc1-2)C(N)=O ... < 9.49 nM
CC(=O)c1c(C)c2cnc(Nc3ccc(N4CCNCC4)cn3)nc2n(C2CCCC2)c1=O + CC(Nc1ccc2c(c1)OCCn1cc(N3C(=O)OCC3C(F)F)nc1-2)C(N)=O ... > 100 nM
CC(C)NCC(C(=O)N1CCN(c2ncnc3c2C(C)CC3O)CC1)c1ccc(Cl)cc1 (configuration not stated) + CC(Nc1ncnc2nc[nH]c12)c1cc2cccc(Cl)c2c(=O)n1-c1ccccc1 ... 1010 nM
CC1(C)CCC(Nc2ncc(C(F)(F)F)c(-c3c[nH]c4c(P(C)(C)=O)c(C#N)ccc34)n2)CN1 (configuration not stated) + CC(Nc1ccc2c(c1)OCCn1cc(N3C(=O)OCC3C(F)F)nc1-2)C(N)=O ... < 31.6 nM
CC1(C)CCC(Nc2ncc(C(F)(F)F)c(-c3c[nH]c4c(P(C)(C)=O)c(C#N)ccc34)n2)CN1 (configuration not stated) + Cc1nc(NC(=O)N2CCCC2C(N)=O)sc1-c1ccnc(C(C)(C)C(F)(F)F)c1 ... 31.6 nM
CC(C)NCC(C(=O)N1CCN(c2ncnc3c2C(C)CC3O)CC1)c1ccc(Cl)cc1 (configuration not stated) + Cc1nc(NC(=O)N2CCCC2C(N)=O)sc1-c1ccnc(C(C)(C)C(F)(F)F)c1 ... 709 nM
Cn1ncc(Cl)c1-c1cc(C(=O)NC(CN)Cc2cccc(F)c2)sc1Cl (configuration not stated) + Cc1nc(NC(=O)N2CCCC2C(N)=O)sc1-c1ccnc(C(C)(C)C(F)(F)F)c1 ... 392 nM
CC(Cn1ccc(-c2ccc(C#N)c(Cl)c2)n1)NC(=O)c1cc(C(C)O)[nH]n1 (configuration not stated) + CC(Nc1ccc2c(c1)OCCn1cc(N3C(=O)OCC3C(F)F)nc1-2)C(N)=O ... > 10000 nM
Cn1cnc2c(F)c(Nc3ccc(Br)cc3Cl)c(C(=O)NOCCO)cc21 + CC(Nc1ncnc2nc[nH]c12)c1cc2cccc(Cl)c2c(=O)n1-c1ccccc1 ... 956 nM
Cn1nccc1Nc1nccc(-c2ccn(C(CO)c3ccc(Cl)c(F)c3)c(=O)c2)n1 (configuration not stated) + Cc1nc(NC(=O)N2CCCC2C(N)=O)sc1-c1ccnc(C(C)(C)C(F)(F)F)c1 ... > 10000 nM

List the reported IC50 of each molecule below.
1. Cn1nccc1Nc1nccc(-c2ccn(C(CO)c3ccc(Cl)c(F)c3)c(=O)c2)n1 (configuration not stated) + CC(Nc1ncnc2nc[nH]c12)c1cc2cccc(Cl)c2c(=O)n1-c1ccccc1
2. CNC(=O)c1ccc(N2C(=S)N(c3ccc(C#N)c(C(F)(F)F)c3)C(=O)C2(C)C)cc1F + COc1c(OCCCN2CCOCC2)ccc2c3n(c(=NC(=O)c4cnc(N)nc4)nc12)CCN3
3. C[C@@H](NC(=O)c1ncnc(N)c1Cl)c1ncc(C(=O)Nc2cc(C(F)(F)F)c(Cl)cn2)s1 + Cc1nc(NC(=O)N2CCCC2C(N)=O)sc1-c1ccnc(C(C)(C)C(F)(F)F)c1

Reply text:
1. > 10000 nM
2. < 31.6 nM
3. > 10000 nM
